Target or test system: T1, human EphB4 (Homo sapiens, UniProt P54760)
T1 construct: a protein of the extracellular region of each human Eph receptor fused with the SEAP protein and the His tag; made in house; host or cells: Expi293F cells
T1 sequence (P54760 16-539 limits assumed): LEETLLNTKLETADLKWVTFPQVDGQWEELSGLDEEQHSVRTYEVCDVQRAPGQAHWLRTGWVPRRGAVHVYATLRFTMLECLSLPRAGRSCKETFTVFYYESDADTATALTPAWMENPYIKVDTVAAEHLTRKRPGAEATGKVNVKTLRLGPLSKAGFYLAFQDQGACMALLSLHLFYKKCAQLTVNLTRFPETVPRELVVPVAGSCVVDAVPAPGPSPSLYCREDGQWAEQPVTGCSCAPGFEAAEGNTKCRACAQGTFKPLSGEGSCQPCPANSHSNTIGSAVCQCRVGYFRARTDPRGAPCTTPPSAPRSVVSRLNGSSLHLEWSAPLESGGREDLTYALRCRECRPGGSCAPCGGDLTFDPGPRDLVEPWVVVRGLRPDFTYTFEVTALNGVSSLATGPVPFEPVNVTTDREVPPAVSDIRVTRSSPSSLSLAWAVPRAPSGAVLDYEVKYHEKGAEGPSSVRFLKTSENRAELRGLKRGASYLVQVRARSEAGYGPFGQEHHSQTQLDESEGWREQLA
Experiment notes: Selectivity ELISA of humanized antibodies for human Eph receptor
Type: binding
Condition notes: coated protein 1 nM
Reported property: hEphB4-SEAP-: absorbance at 450 nm, percentage with respect to hEphA4-SEAP-His as 100% (%)
Respond with the bare value in %.

Qu. Fill blank: measured hEphB4-SEAP-: absorbance at 450 nm, percentage with respect to hEphA4-SEAP-His as 100% of the molecule 96 (antibody, V domains shown, constant regions without entry; synthetic humanized antibody light chain variable region sequence; synthetic humanized antibody heavy chain variable region sequence) VL: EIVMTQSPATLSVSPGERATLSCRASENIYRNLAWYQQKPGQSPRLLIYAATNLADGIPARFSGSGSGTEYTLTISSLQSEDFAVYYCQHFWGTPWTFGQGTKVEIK VH: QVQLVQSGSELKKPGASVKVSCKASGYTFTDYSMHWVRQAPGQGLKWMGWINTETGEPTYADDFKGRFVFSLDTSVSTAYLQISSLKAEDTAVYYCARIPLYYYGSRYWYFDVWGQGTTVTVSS is ____.
Ans. 5.5

Origin of values: patent US10428140B2
